We begin with a simple list: items and their reported Herbicidal Effect Monochoria vaginalis.
Tested on: Monochoria (Monochoria vaginalis)
Assay: Weed control test for paddy field (Test Example 1): Monochoria
Type: in vivo
Conditions: dose 5 g ai/a; paddy pots, treated at 1.0 leaf stage of barnyard grass; examined after 3 weeks

| Mol | System Tested | Observed Measurement |
| --- | --- | --- |
| CSCC(=Cc1cccc(C(F)(F)F)c1)c1nc2cc(Cl)ccc2o1 | Monochoria (Monochoria vaginalis) | 5 (100%) |

Task item: Reported Herbicidal Effect Monochoria vaginalis for COCC(=Cc1cccc(C(F)(F)F)c1)c1nc2cc(C(C)(C)C)ccc2o1 : what is it?
Reply: 5 (100%)

Task item: Query COC/C(=C\c1cccc(C(F)(F)F)c1)c1nc2cc(Cl)ccc2o1 next
Reply: 5 (100%)

Task item: Query COCC(=Cc1ccc(Cl)c(C(F)(F)F)c1)c1nc2cc(Cl)ccc2o1 next
Reply: 5 (100%)
